# Assayed Target: Mitogen-activated protein kinase kinase kinase 14 (Homo sapiens, UniProt Q99558)
# Sequence (Q99558 whole entry, the tested form may be a part): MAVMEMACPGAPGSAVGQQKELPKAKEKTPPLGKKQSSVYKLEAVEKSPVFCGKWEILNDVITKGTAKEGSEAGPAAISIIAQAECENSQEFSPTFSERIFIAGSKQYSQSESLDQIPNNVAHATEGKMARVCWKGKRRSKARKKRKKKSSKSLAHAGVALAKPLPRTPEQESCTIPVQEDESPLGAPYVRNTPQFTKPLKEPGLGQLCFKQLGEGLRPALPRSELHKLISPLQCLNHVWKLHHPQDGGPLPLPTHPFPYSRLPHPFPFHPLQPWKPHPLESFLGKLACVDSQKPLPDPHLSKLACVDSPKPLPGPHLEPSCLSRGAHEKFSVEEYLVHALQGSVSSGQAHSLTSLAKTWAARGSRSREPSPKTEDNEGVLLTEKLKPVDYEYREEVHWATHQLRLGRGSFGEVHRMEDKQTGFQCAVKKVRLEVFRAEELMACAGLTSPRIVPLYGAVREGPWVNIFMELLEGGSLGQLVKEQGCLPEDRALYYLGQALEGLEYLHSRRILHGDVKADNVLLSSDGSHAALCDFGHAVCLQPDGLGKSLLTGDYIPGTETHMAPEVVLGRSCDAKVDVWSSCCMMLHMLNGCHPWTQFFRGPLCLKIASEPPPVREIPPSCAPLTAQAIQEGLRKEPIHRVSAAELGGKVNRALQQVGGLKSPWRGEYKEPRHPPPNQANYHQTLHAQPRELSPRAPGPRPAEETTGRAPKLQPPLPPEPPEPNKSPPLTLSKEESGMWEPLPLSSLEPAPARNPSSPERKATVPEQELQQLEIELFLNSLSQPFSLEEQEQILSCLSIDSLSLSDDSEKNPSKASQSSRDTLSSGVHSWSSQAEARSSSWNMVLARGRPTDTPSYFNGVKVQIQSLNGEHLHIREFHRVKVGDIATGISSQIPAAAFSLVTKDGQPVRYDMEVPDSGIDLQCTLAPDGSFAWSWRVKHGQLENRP
# Protocol Notes: Inhibition of human recombinant GST-fused NIK expressed in Sf9 cells after 60 mins by radiometric protein kinase assay
pIC50: −log10 of the molar value.
Consider the following compounds; for each one, report its pIC50.

pIC50 of `O=C1Cc2ccccc2C(=O)N1` , assay on Mitogen-activated protein kinase kinase kinase 14 (Homo sapiens, UniProt Q99558), is 4.29

pIC50 of `O=c1[nH]c(=O)c2c(Cl)cc(Cl)cc2[nH]1` , assay on Mitogen-activated protein kinase kinase kinase 14 (Homo sapiens, UniProt Q99558), is < 4.00

pIC50 of `O=C1NC(=O)c2ccccc2/C1=C\c1cccs1` , assay on Mitogen-activated protein kinase kinase kinase 14 (Homo sapiens, UniProt Q99558), is < 4.00

pIC50 of `CCO/C=C1/C(=O)NC(=O)c2ccccc21` , assay on Mitogen-activated protein kinase kinase kinase 14 (Homo sapiens, UniProt Q99558), is < 4.30

pIC50 of `CC1=CC(=O)c2c(O)cccc2C1=O` , assay on Mitogen-activated protein kinase kinase kinase 14 (Homo sapiens, UniProt Q99558), is < 4.00

pIC50 of `O=C1Cc2ccccc2CN1` , assay on Mitogen-activated protein kinase kinase kinase 14 (Homo sapiens, UniProt Q99558), is < 4.00

pIC50 of O=C1CC2CC(=O)NC(=O)C2C(=O)N1 (configuration not stated) , assay on Mitogen-activated protein kinase kinase kinase 14 (Homo sapiens, UniProt Q99558), is 4.05

Taken from ChEMBL document CHEMBL1208710.
